Experiment: MTT cell viability in parallel with the U1 assay
Type: cell-based
Conditions: human, U1 cells; Table 5; read-out: U1 TC50
The entries below are paired with their reported CC50 at 3 days.

# annotated cases, reported CC50 at 3 days shown
NC(=O)c1sc2cncc(-c3cccc4ccccc34)c2c1N :: < 40 µM
NC(=O)c1cc2c(-c3cccc(-c4ccccc4)c3)cncc2s1 [drawing 145] :: < 40 µM
NC(=O)c1sc2cncc(N3CCN(C=O)CC3)c2c1N :: > 40 µM
CN(C)c1ccc(-c2cncc3sc(C(N)=O)c(N)c23)cc1 :: > 40 µM
CCOc1ncccc1-c1cncc2sc(C(N)=O)c(N)c12 :: > 40 µM
NC(=O)c1sc2cncc(-c3ccccc3)c2c1N :: > 40 µM
Cc1noc(C2CCCN(c3cncc4sc(C(N)=O)c(N)c34)C2)n1 (stereo not drawn) [drawing 169] :: > 40 µM
NC(=O)c1cc2c(-c3ccccc3OC(F)(F)F)cncc2s1 :: < 40 µM
CN(C)C(=O)c1ccc(-c2cncc3sc(C(N)=O)c(N)c23)cc1 :: > 40 µM
NC(=O)c1sc2cncc(-c3ccoc3)c2c1N :: < 40 µM

Asked: Consider the compound NC(=O)c1sc2cncc(N3CCCC3)c2c1N and give its recorded CC50 at 3 days.
Given back: > 40 µM

* * *

The entries below are paired with their reported CC50.
Experiment: MTT cell viability in Jurkat replication assay
Format: cell-based
Details: human, Jurkat (E6-1) cells, pH 7.4; Jurkat infectivity assay; read-out: TC50 (MTT cell viability)

Asked: Consider the compound NC(=O)c1sc2cncc(N3CCCCC3)c2c1N and give its recorded CC50.
Given back: > 40 µM

Asked: Consider the compound NC(=O)c1cc2c(-c3ccc4c(c3)CCO4)cncc2s1 and give its recorded CC50.
Given back: < 40 µM

* * *

Test: Human liver microsome stability
Format: in vitro ADME
Conditions: human liver microsomes; read-out: HLM T1/2
assay metric: half-life (min)
// units = min; emit number, no label

NC(=O)c1cc2c(-c3ccc4c(c3)CCO4)cncc2s1 :: 18
NC(=O)c1sc2cncc(N3CCCCC3)c2c1N :: 28

Could you now look at the following molecule, please?
Asked: Consider the molecule COc1ccc(-c2cncc3sc(C(N)=O)cc23)cc1 and give its recorded half-life.
Given back: 8

* * *

Assay: MTT cell viability run in parallel with the Tat-hybrid assay
Type: cell-based
Conditions: human, Tat-hybrid reporter cell lines (HeLa); Table 5; read-out: Tat hybrid TC50
assay metric: CC50 at 48 h

# annotated cases, reported CC50 at 48 h shown
NC(=O)c1cc2c(-c3cnc4ccccc4c3)cncc2s1 :: > 40 µM
NC(=O)c1sc2cncc(N3CCCC(COc4ccccc4F)C3)c2c1N (stereo not drawn) :: < 40 µM
CC(=O)N1CCN(c2cncc3sc(C(N)=O)c(N)c23)CC1 [drawing 144] :: > 40 µM

Asked: Consider the compound NC(=O)c1sc2cncc(-c3ccc4c(c3)OCCO4)c2c1N and give its recorded CC50 at 48 h.
Given back: < 40 µM

Asked: Consider the compound NC(=O)c1sc2cncc(N3CCC(F)(F)CC3)c2c1N [drawing 159] and give its recorded CC50 at 48 h.
Given back: < 40 µM

Asked: Consider the compound NC(=O)c1cc2c(-c3ccc4c(c3)OCCO4)cncc2s1 and give its recorded CC50 at 48 h.
Given back: < 40 µM
